meta.source: ChEMBL document CHEMBL4041536

PROCEDURE TEXT: Inhibition of PARP in chinese hamster VC8 cells harboring BRCA2 mutant
Format: cell-based, Cricetulus griseus
Attribute: pIC50
The value called pIC50 is obtained by taking minus log10 of the concentration in mol/L.

1) Nc1ccc2c3c(cccc13)C(=O)NC2=O
5.59
2) O=c1[nH]ccc2c([N+]3=NN(CCCl)CC3)cccc12
4.62

Consider now this further compound.
Enquiry: Record request: pIC50 value, item `ClCCN1CC[N+](c2ccc3ncnc(Nc4cccc(Cl)c4)c3c2)=N1`
Return: 4.82

----------
Species: Cricetulus griseus
PROCEDURE TEXT: Selectivity ratio of PARP inhibition in chinese hamster VC8 cells harboring wild type BRCA2 to PARP inhibition in chinese hamster VC8 cells harboring BRCA2 mutant
Format: cell-based
OBSERVABLE: Selectivity ratio

1) CN/N=N/c1ccc2c3c(cccc13)C(=O)NC2=O
2 to 7
2) O=C1NC(=O)c2ccc([N+]3=NN(CCCl)CC3)c3cccc1c23.[Cl-]
25
3) CN(C)/N=N/c1ccc2c3c(cccc13)C(=O)NC2=O
2 to 7
4) Nc1ccc2c3c(cccc13)C(=O)NC2=O
77
5) CN/N=N/c1cccc2c(=O)[nH]ccc12
2 to 7

Enquiry: Record request: Selectivity ratio value, item `CN(CO)/N=N/c1ccc2c3c(cccc13)C(=O)NC2=O`
Return: 2 to 7

Enquiry: Also `CN(C)/N=N/c1cccc2c(=O)[nH]ccc12` , if possible.
Return: 2 to 7

Enquiry: Also `CN(CO)/N=N/c1cccc2c(=O)[nH]ccc12` , if possible.
Return: 2 to 7
